test system: JHH-4 (Hepatocellular Carcinoma); assay: combination Emax (second highest fraction inhibited in the dose matrix, 72 h); higher = more inhibition; extreme values may be limits of the assay
metric: combination Emax
Reply briefly: the number, and no unit.

q: Short answer please: combination Emax, JHH-4 (Hepatocellular Carcinoma), entry COc1nnc2ccc(N3CCC(c4ccc(OCCN5CCN(C)C(=O)[C@H]5C)cc4)CC3)nn12 [AZD5153] + CC1(C)CCC(CN2CCN(c3ccc(C(=O)NS(=O)(=O)c4ccc(NCC5CCOCC5)c([N+](=O)[O-])c4)c(Oc4cnc5[nH]ccc5c4)c3)CC2)=C(c2ccc(Cl)cc2)C1 [Venetoclax] (first compound max 1 µM, 7x7, partner max 1 µM)
a: 0.392
